Entries annotated with measured PBM E-score
Target: Nrg2 (UniProt P38082)
Sequence: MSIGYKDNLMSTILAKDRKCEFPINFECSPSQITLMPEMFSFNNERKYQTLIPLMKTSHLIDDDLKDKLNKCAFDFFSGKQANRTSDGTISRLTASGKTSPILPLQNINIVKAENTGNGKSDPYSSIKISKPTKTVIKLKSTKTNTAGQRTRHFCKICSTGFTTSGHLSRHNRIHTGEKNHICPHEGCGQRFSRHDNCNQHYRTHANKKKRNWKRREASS
Experiment: PBM E-score (8-mer binding enrichment) (E-score (-0.5 to 0.5)); higher = stronger / more preferred TF binding
Conditions: protein concentration: 100 nM; construct: GST-full length
Whole data set: some 33,000 sequences, median “E-score (-0.5 to 0.5)” near -8e-05, cut for the highest 2% near 0.23. The list comes from a sample in which the highest values are over-represented; it also holds close analogues and randomly drawn sequences.
Value kind: PBM E-score

>>> numeric_readout("AATTAATG")
0.182
>>> numeric_readout("CGCGGGCA")
0.281
>>> numeric_readout("AAGCTTCC")
-0.206
>>> numeric_readout("AAAACGCC")
0.0808
>>> numeric_readout("ACGCGCAG")
0.025
>>> numeric_readout("ATGCGACA")
0.0603
>>> numeric_readout("ATACAAAT")
0.173
>>> numeric_readout("TCCATCGA")
-0.021
>>> numeric_readout("AGGCGGGG")
0.0214
>>> numeric_readout("AATAATTA")
0.286
>>> numeric_readout("TATTAATA")
0.152
>>> numeric_readout("CGCGGGCC")
0.176
>>> numeric_readout("AAGGGATC")
0.135
>>> numeric_readout("GAGGGATA")
-0.145
>>> numeric_readout("AAACAAAA")
0.0254
>>> numeric_readout("CAGGGATG")
0.211
>>> numeric_readout("CGCGCGCA")
0.296
>>> numeric_readout("GTTTAATA")
0.198
>>> numeric_readout("AATTAATA")
0.303
>>> numeric_readout("GATTAATA")
0.29
>>> numeric_readout("GATAATTA")
0.0635
>>> numeric_readout("AAACAAAT")
0.235

---

Target: Nrg2 (UniProt P38082)
Sequence: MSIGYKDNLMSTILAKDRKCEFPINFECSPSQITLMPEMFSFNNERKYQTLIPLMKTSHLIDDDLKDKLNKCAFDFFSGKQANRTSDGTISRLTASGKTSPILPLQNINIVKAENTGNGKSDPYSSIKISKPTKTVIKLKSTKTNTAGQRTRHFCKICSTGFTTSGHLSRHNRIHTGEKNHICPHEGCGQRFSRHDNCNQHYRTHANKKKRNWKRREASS
Assay: PBM E-score (8-mer binding enrichment) (E-score (-0.5 to 0.5)); higher = stronger / more preferred TF binding
Conditions: protein concentration: 100 nM; construct: GST-full length
In all, about 33,000 sequences were measured (“E-score (-0.5 to 0.5)”: median about -8e-05, highest 2% from about 0.23 on). The sample holds the highest values, similar sequences and a random draw of the others, so the mix is not that of the screen.
Returns y if the recorded PBM E-score is greater than or equal to 0.1, and n otherwise.

>>> class_name("AATCCCTC")
"n"
>>> class_name("AAACTAGA")
"n"
>>> class_name("ATCAGAAA")
"n"
>>> class_name("CAAGGGAC")
"y"
>>> class_name("ATATTAAA")
"y"
>>> class_name("GCATTAAA")
"y"
>>> class_name("CAGTGAAA")
"n"
>>> class_name("CTGGGGTC")
"n"
>>> class_name("AATCCCTA")
"y"
>>> class_name("AGTCCCTG")
"y"
>>> class_name("CAGTGAAC")
"y"
>>> class_name("CAGGCCAC")
"n"
>>> class_name("AAAGGGTT")
"n"
>>> class_name("TTATTAAA")
"y"
>>> class_name("TAACTCGA")
"y"
>>> class_name("GAACTAGA")
"n"
>>> class_name("ATATTCAA")
"y"
>>> class_name("AGCTTACA")
"y"
>>> class_name("ATATTAAC")
"y"
>>> class_name("TTATTCAA")
"n"
>>> class_name("CTATTAAA")
"y"

---

Target: Nrg2 (UniProt P38082)
Sequence: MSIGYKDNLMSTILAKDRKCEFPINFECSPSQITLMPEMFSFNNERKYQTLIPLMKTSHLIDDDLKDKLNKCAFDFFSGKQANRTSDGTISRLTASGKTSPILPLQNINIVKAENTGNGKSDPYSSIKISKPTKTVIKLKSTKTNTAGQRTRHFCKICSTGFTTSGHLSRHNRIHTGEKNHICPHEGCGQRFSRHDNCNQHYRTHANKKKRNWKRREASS
Experiment: PBM E-score (8-mer binding enrichment) (E-score (-0.5 to 0.5)); higher = stronger / more preferred TF binding
Conditions: protein concentration: 100 nM; construct: GST-full length
The full ranking holds about 33,000 sequences; the median of “E-score (-0.5 to 0.5)” is about -8e-05, and the highest 2% start at about 0.23. Only a selection was taken, and the highest values are over-represented in it overall.
Assign Met to entries whose PBM E-score meets or exceeds 0.03; assign Not met to the rest.

>>> class_name("AACTTATA")
"Met"
>>> class_name("CAAACGAA")
"Not met"
>>> class_name("AACCTTGC")
"Not met"
>>> class_name("ATATCTCG")
"Met"
>>> class_name("CCCACAAA")
"Met"
>>> class_name("AAGGCCTC")
"Not met"
>>> class_name("AAAATAGA")
"Met"
>>> class_name("CTAACCCA")
"Not met"
>>> class_name("ATGGCGCC")
"Met"
>>> class_name("AATATGGA")
"Met"
>>> class_name("CCAAAAAA")
"Met"
>>> class_name("AGCAGTGC")
"Not met"
>>> class_name("GGATAGCA")
"Met"
>>> class_name("CCCAGTGC")
"Met"
>>> class_name("AGGACCTA")
"Met"
>>> class_name("AAGTCCGA")
"Not met"
>>> class_name("ACCATCGC")
"Met"
>>> class_name("CCTGCTGA")
"Met"
>>> class_name("TCGATACA")
"Met"
>>> class_name("TCGCGAAA")
"Met"
>>> class_name("AGCAGTGA")
"Met"
>>> class_name("CCCGAACG")
"Not met"
>>> class_name("GTGAGCAA")
"Not met"
>>> class_name("CCAACGGA")
"Not met"
>>> class_name("CGACCCTA")
"Met"
>>> class_name("CGCACGAG")
"Not met"
>>> class_name("AAGATACA")
"Met"
>>> class_name("ATCTCAAT")
"Met"
>>> class_name("AACCCCGG")
"Not met"
>>> class_name("CCCACAAG")
"Not met"
>>> class_name("TCAACGGA")
"Not met"
>>> class_name("CGAACTGC")
"Not met"
>>> class_name("ATGCCCAT")
"Not met"
>>> class_name("CGAGCTCC")
"Met"
>>> class_name("AGTGCTGA")
"Not met"
>>> class_name("TAGTAAGA")
"Met"
>>> class_name("TAGGACAA")
"Met"
>>> class_name("CAAAAAAC")
"Met"
>>> class_name("GAGATATC")
"Met"
>>> class_name("CAACAAGG")
"Met"
>>> class_name("AACCTGTC")
"Not met"
>>> class_name("CAAATAGA")
"Met"
>>> class_name("CAAACAAC")
"Met"
>>> class_name("GATTATAC")
"Met"
>>> class_name("CGGTTTGC")
"Not met"
>>> class_name("CGAAAAGA")
"Met"
>>> class_name("ACGAGGAC")
"Not met"
>>> class_name("TATCCACA")
"Met"
>>> class_name("TAAAACTA")
"Met"
>>> class_name("ATGAGAGC")
"Not met"
>>> class_name("GTAAGATA")
"Met"
>>> class_name("CGAGCTTA")
"Not met"
>>> class_name("GTGGGCTA")
"Not met"
>>> class_name("CATACCTA")
"Not met"
>>> class_name("CGAGCTCG")
"Met"
>>> class_name("GAAGGCAC")
"Met"
>>> class_name("CTCTCTCA")
"Not met"
>>> class_name("ATCTCTCC")
"Not met"
>>> class_name("CTACCACC")
"Not met"
>>> class_name("CAGTCACA")
"Not met"
>>> class_name("ACGTGGTG")
"Not met"
>>> class_name("GAACCCAA")
"Met"
>>> class_name("AAGATATC")
"Met"
>>> class_name("CGCGGTTC")
"Met"
>>> class_name("GCCACAAA")
"Met"
>>> class_name("CTAAAAGA")
"Not met"
>>> class_name("ACAACGGG")
"Met"
>>> class_name("ATCTTGCA")
"Met"
>>> class_name("GAGTAAGA")
"Not met"
>>> class_name("TAGATACA")
"Met"
>>> class_name("ATACATGC")
"Not met"
>>> class_name("ATAACCCA")
"Not met"
>>> class_name("ATCTCAAG")
"Met"
>>> class_name("GTCTCTCA")
"Not met"
>>> class_name("ATCTCAAC")
"Met"
>>> class_name("AATACCTA")
"Met"
>>> class_name("TAACTGCA")
"Met"
>>> class_name("ATTGTGCA")
"Met"
>>> class_name("TCAGCTGA")
"Met"
>>> class_name("AGAGCTGA")
"Not met"
>>> class_name("GCGATACA")
"Not met"
>>> class_name("CATTAAGA")
"Not met"
>>> class_name("CAAATATG")
"Not met"
>>> class_name("GCACCCTA")
"Met"
>>> class_name("CTATCTCA")
"Not met"
>>> class_name("GCTTCGTA")
"Not met"
>>> class_name("CCTAACGA")
"Not met"
>>> class_name("GAACCCCA")
"Met"
